STUDY_SYSTEM: CDK2 (Homo sapiens)
Construct: endogenous in cells; host or cells: MKN1 cells
PROTOCOL_TEXT: CDK2 degradation in MKN1 cells (AlphaLISA)
Type: cell-based
CONDITION_INFO: 14 h incubation
MEASUREMENT_NAME: CDK2 degradation 14 h: Average Dmax %

{"COMPOUND": "Cc1cc(S(=O)(=O)NC2CC(N3CCN(CC4CCN(c5ccc(NC6CCC(=O)NC6=O)c(Cl)c5)CC4)CC3)C2)ccc1Nc1ncc(C(F)(F)F)c(N2CCCC(C)(O)C2)n1 (stereo not drawn)", "MEASUREMENT_NAME": "CDK2 degradation 14 h: Average Dmax %", "ASSAY_VALUE": "A (A (>75% o))"}
{"COMPOUND": "Cc1cc(S(=O)(=O)C2CC3(CCN(CC4CCN(c5ccc(C6CCC(=O)NC6=O)cc5)CC4)CC3)C2)ccc1Nc1ncc2cc(Cl)c(=O)n(C3CCCC3)c2n1 (stereo not drawn)", "MEASUREMENT_NAME": "CDK2 degradation 14 h: Average Dmax %", "ASSAY_VALUE": "A (A (>75% o))"}
